measurement.context: in ethanol, 273.15 K
readout: solubility (mole fraction)
Please give the numeric answer without any surrounding text.

For the compound shown here, `CC(=CC(C)=Nc1c(C)cc(C)cc1C)Nc1c(C)cc(C)cc1C` , give the reported solubility (mole fraction).
0.00285

###

measurement.context: in THF, 283.15 K
readout: solubility (mole fraction)

For the compound shown here, `CC(=CC(C)=Nc1c(C)cc(C)cc1C)Nc1c(C)cc(C)cc1C` , give the reported solubility (mole fraction).
0.253

###

measurement.context: in n-hexane, 278.15 K
readout: solubility (mole fraction)
Please give the numeric answer without any surrounding text.

For the molecule shown here, `CC(=CC(C)=Nc1c(C)cc(C)cc1C)Nc1c(C)cc(C)cc1C` , give the reported solubility (mole fraction).
0.106

###

measurement.context: in methanol, 298.15 K
readout: solubility (mole fraction)
Please give the numeric answer without any surrounding text.

For the molecule shown here, `CC(=CC(C)=Nc1c(C)cc(C)cc1C)Nc1c(C)cc(C)cc1C` , give the reported solubility (mole fraction).
0.00205

###

measurement.context: in toluene, 293.15 K
readout: solubility (mole fraction)
Please give the numeric answer without any surrounding text.

For the compound shown here, `CC(=CC(C)=Nc1c(C)cc(C)cc1C)Nc1c(C)cc(C)cc1C` , give the reported solubility (mole fraction).
0.295

###

measurement.context: in n-hexane, 288.15 K
readout: solubility (mole fraction)

For the compound shown here, `CC(=CC(C)=Nc1c(C)cc(C)cc1C)Nc1c(C)cc(C)cc1C` , give the reported solubility (mole fraction).
0.148

###

measurement.context: in toluene, 283.15 K
readout: solubility (mole fraction)
Please give the numeric answer without any surrounding text.

For the compound shown here, `CC(=CC(C)=Nc1c(C)cc(C)cc1C)Nc1c(C)cc(C)cc1C` , give the reported solubility (mole fraction).
0.236

###

measurement.context: in toluene, 278.15 K
readout: solubility (mole fraction)
Please give the numeric answer without any surrounding text.

For the compound shown here, `CC(=CC(C)=Nc1c(C)cc(C)cc1C)Nc1c(C)cc(C)cc1C` , give the reported solubility (mole fraction).
0.211

###

measurement.context: in methanol, 278.15 K
readout: solubility (mole fraction)
Please give the numeric answer without any surrounding text.

For the compound shown here, `CC(=CC(C)=Nc1c(C)cc(C)cc1C)Nc1c(C)cc(C)cc1C` , give the reported solubility (mole fraction).
0.00094

###

measurement.context: in THF, 293.15 K
readout: solubility (mole fraction)
Please give the numeric answer without any surrounding text.

For the compound shown here, `CC(=CC(C)=Nc1c(C)cc(C)cc1C)Nc1c(C)cc(C)cc1C` , give the reported solubility (mole fraction).
0.295

###

measurement.context: in n-hexane, 283.15 K
readout: solubility (mole fraction)
Please give the numeric answer without any surrounding text.

For the molecule shown here, `CC(=CC(C)=Nc1c(C)cc(C)cc1C)Nc1c(C)cc(C)cc1C` , give the reported solubility (mole fraction).
0.124

###

measurement.context: in THF, 288.15 K
readout: solubility (mole fraction)
Please give the numeric answer without any surrounding text.

For the molecule shown here, `CC(=CC(C)=Nc1c(C)cc(C)cc1C)Nc1c(C)cc(C)cc1C` , give the reported solubility (mole fraction).
0.273

###

measurement.context: in n-hexane, 303.15 K
readout: solubility (mole fraction)

For the molecule shown here, `CC(=CC(C)=Nc1c(C)cc(C)cc1C)Nc1c(C)cc(C)cc1C` , give the reported solubility (mole fraction).
0.255
